experimental system: HIV-1 Env of isolate MGRM-G-019 (subtype G), on pseudovirus (HIV-1)
assay details: cell-based or functional assay
This section presents binders with their documented IC50 (µg/mL), neutralization of pseudovirus values.

Just so you know, measured IC50 (µg/mL), neutralization of pseudovirus for PGT-135 (antibody, V domains shown) VH: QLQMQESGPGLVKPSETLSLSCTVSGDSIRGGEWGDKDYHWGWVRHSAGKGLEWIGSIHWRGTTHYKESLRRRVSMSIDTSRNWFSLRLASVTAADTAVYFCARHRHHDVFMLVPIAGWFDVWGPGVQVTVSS VL: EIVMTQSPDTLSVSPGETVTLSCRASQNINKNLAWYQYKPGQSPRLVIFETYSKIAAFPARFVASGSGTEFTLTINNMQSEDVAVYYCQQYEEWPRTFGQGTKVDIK came out at 0.145 µg/mL

IC50 (µg/mL), neutralization of pseudovirus reading for PGT-131 (antibody, V domains shown) VH: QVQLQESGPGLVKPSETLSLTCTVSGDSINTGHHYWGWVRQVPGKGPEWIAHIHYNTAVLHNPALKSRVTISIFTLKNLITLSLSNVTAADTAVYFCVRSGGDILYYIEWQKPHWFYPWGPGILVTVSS VL: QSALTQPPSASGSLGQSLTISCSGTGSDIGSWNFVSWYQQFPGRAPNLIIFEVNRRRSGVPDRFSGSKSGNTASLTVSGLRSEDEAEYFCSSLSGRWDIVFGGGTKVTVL : > 50 µg/mL
